Where do these numbers come from? They come from patent US20110236969A1.

Biological target: GST-fused human V158 FcγRIIIa (extracellular region) (human) (UniProt P08637)
Sequence (P08637 17-208 F176V): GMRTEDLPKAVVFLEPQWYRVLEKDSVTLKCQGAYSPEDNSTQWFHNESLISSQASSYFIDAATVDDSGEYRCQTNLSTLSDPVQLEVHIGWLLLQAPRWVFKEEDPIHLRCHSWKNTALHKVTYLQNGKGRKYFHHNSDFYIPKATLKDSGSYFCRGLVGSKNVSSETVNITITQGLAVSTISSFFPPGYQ
Assay: AlphaScreen competition with biotin-WT AC10
Below, each entry is listed with its recorded IC50.

AC10 H1L1 (H1 AC10 VH, L1 AC10 VL) (antibody, from a related filing, IgG1, V domains shown) VH: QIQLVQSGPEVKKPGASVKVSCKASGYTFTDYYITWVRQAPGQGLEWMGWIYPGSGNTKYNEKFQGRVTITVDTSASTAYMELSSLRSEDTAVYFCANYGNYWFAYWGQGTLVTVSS VL: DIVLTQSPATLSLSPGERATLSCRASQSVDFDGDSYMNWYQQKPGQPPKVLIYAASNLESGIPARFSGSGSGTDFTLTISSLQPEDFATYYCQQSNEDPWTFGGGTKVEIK :: 221 nM
AC10 H2L3 (H2 AC10 VH, L3 AC10 VL) (antibody, from a related filing, IgG1, V domains shown) VH: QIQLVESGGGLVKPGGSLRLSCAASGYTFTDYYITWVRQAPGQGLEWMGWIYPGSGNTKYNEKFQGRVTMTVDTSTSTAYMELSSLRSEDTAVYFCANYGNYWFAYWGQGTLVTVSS VL: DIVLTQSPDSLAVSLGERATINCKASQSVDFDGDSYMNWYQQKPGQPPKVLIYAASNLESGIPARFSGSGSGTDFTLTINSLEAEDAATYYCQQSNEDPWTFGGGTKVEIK :: 183 nM

Could you now look at the following binder, please?
Just so you know, measured IC50 for AC10 H3L1 (H3 AC10 VH, L1 AC10 VL) (antibody, from a related filing, IgG1, V domains shown) VH: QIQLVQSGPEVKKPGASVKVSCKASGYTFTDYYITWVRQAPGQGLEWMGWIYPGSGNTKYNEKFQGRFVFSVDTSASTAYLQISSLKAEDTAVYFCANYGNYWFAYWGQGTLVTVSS VL: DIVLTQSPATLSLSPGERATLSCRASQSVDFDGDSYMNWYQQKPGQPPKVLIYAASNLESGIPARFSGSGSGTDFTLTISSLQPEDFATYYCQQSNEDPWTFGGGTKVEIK came out at 209 nM
